molecular target: full-length beta-Catenin (Uniprot ID P35222) (Homo sapiens (Human)); assay: fluorescence polarization competition; full-length beta-catenin, 5FAM-TCF4(10-53) probe displaced
readout: pIC50
A value of pIC50 is the negative decimal logarithm of a concentration given in moles per litre.

Worked cases, answers included:
INSERT INTO results (substance, tested_system, readout, quantitative_result) VALUES
  ('Ac-PL3-Asp-Npg-B5-Asp-Asp-Ala-Ala-Phe-Leu-PyrS2-2CNF-BztA-Gln-NH2 (peptide)', 'full-length beta-Catenin (Uniprot ID P35222) (Homo sapiens (Human))', 'pIC50', 7.80),
  ('MeSO2-PL3-Asp-Npg-B5-Asp-Asp-Ala-Ala-Phe-Asn-PyrS2-3Thi-BztA-Gln-NH2 (peptide)', 'full-length beta-Catenin (Uniprot ID P35222) (Homo sapiens (Human))', 'pIC50', 8.00),
  ('Ac-PL3-Asp-Npg-B5-Asp-Asp-Ala-Ala-Phe-Leu-PyrS2-4CNF-BztA-Gln-NH2 (peptide)', 'full-length beta-Catenin (Uniprot ID P35222) (Homo sapiens (Human))', 'pIC50', 6.01),
  ('MeSO2-PL3-Asp-Npg-B5-Asp-TfeGA-Ala-Ala-Phe-Asn-PyrS2-3Thi-BztA-Gln-NH2 (peptide)', 'full-length beta-Catenin (Uniprot ID P35222) (Homo sapiens (Human))', 'pIC50', 8.15);

Bench note: what pIC50 did Ac-PL3-Asp-Npg-B5-Asp-Asp-Ala-Ala-Phe-Leu-PyrS2-3CNF-BztA-Gln-NH2 (peptide) show?
7.09
